# Target of assay: T1, CD134 expressed on the cell surface of HT1080_OX40 cells (human, UniProt P43489 29-277); further: test concentration or dose not given here
# T1 sequence (looked up): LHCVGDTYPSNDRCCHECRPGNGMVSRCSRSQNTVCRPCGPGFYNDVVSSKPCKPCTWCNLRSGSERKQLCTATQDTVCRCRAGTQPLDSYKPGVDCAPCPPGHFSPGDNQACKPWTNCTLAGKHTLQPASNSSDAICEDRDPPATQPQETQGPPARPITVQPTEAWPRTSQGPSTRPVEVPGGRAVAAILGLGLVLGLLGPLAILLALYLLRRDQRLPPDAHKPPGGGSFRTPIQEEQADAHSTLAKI
# Assay overview: cell-based or functional assay
Functional assay Cross-linked by F(ab′)2 fragment IL-8: recorded values
The answer is to be given in abs. corr.; state only the numeric part.

Binder	Units of measure	Value measured
P018.S.04.A.A06 (antibody, V domains shown, V regions on human Ig constant parts; also called AB134_5) VH: QSLEESGGRLVTPGTPLTLTCTVSGFSLHNYNIQWVRQAPGKGLEWIGWILTDGSPYCANWAKGRFTISKTSTTVDLKITSPTIEDTATYFCARMGDYNINGLWGPGTLVTVSS VL: AQVLTQTPSSVSAAVGGTVTINCQSSQRIYNNDFLSWYQQKPGQPPKLLIYAASTLASGVPSRFKGSGSGTQFTLTISDLESDDAATYYCQGGYSSSGWYLPFGGGTEVVVK	abs. corr.	2.21

// switching to the query binder
Request: Name the recorded Functional assay Cross-linked by F(ab′)2 fragment IL-8 for P018.S.11.A.B03 (antibody, V domains shown, V regions on human Ig constant parts; also called AB134_24) VH: QSLEESGGRLVTPGTPLTLTCTVSGFSLSNYAMSWVRQAPGKGLEWIAIISGSGSTNYASWAKGRFTLSKASTTVALKITSPTTEDTATYFCGRGRDDDYAWDLWGQGTLVTVSS VL: DVVMTQTPASVSEPVGGTVTIKCQASQTISNYLAWYQQKPGQPPKLLIYAASTLASGVSSRFRGSGSGTEFSLTISDLESADAATYYCHCTYYDSSYHGFGGGTEVVVK .
Result: 2.1
